ASSAY_PROTOCOL: Dissolution rate of tablets in FaSSIF v2 medium (small-scale dissolution assay, UV quantification, Noyes-Whitney fit)
Format: physicochemical
TEST_CONDITIONS: FaSSIF v2 (pH 6.5), 25° C., 120 minutes, 3 mm tablet
Below: a set of entries, each annotated with reported dissolution rate.
Hi! Could you send only the number? It should be in nmol/min, unit omitted.

COMPOUND | dissolution rate / nmol/min
C=C1CC[C@H](O)C/C1=C/C=C1\CCC[C@]2(C)[C@@H]([C@H](C)/C=C/[C@H](C)C(C)C)CC[C@@H]12 [VD2, ergocalciferol] | 0.74
C=C1CC[C@H](O)C/C1=C/C=C1\CCC[C@]2(C)[C@@H]([C@H](C)CCCC(C)C)CC[C@@H]12 [VD3, cholecalciferol, reference compound] | 0.58
C=C1CCC(O)CC1=CC=C1CCCC2(C)C1CCC2C(C)CCCC(C)C.Oc1cccc(O)c1 (stereo not shown) [VD3-resorcinol] | 0.94

Per the record, C=C1CCC(O)CC1=CC=C1CCCC2(C)C1CCC2C(C)C=CC(C)C(C)C.C=C1CCC(O)CC1=CC=C1CCCC2(C)C1CCC2C(C)CCCC(C)C (stereo not shown) [VD3-VD2] has dissolution rate of 0.63
